Tested on: α-glucosidase
METHOD_NOTES: In-vitro α-glucosidase inhibition assay (4-nitro phenyl α-D-glucopyranoside substrate)
Format: biochemical
SETUP_CONDITIONS: test samples 0.5 mM
Method: The most recent investigations were carried out utilizing the techniques we previously discussed. The enzyme and substrate were dissolved in phosphate buffer (pH 6.8) which also served as the reaction buffer for the experiments. […] Changes in absorbance brought on by substrate breakdown were measured at 400 nm for 30 min after each well-received 25 µL of 4-nitro phenyl α-D-glucopyranoside. […]
PROPERTY: Percent inhibition (0.5 mM) (%)
Answers are plain numbers, in %.

// worked examples, Percent inhibition (0.5 mM) included
COMPOUND_STRUCTURE_STRING: O=c1oc2ccccc2c(Cl)c1/C=N/NC(=S)NC1CCCCC1
UNIT_ABBREVIATION: %
TEST_RESULT: 91.70
--
COMPOUND_STRUCTURE_STRING: O=c1oc2ccccc2c(Cl)c1/C=N/NC(=S)NCc1ccccc1
UNIT_ABBREVIATION: %
TEST_RESULT: 91.20
--
COMPOUND_STRUCTURE_STRING: O=c1oc2ccccc2c(Cl)c1/C=N/NC(=S)Nc1ccccc1F
UNIT_ABBREVIATION: %
TEST_RESULT: 92.08

Kindly consider the entry below.
Request: What value of Percent inhibition (0.5 mM) has been reported for the following molecule? O=c1oc2ccccc2c(Cl)c1/C=N/NC(=S)Nc1cccc(Cl)c1Cl
Response: 92.54
